Give measured Kd for each item. Keep answers brief.
# study system: PhoP Y205A (Mycobacterium tuberculosis, UniProt P71814 1-247, Y205A)
# protocol details: ITC; 5 mM MgCl2; ITC: 20 mM HEPES pH 7.5, 100 mM NaCl, 5 mM MgCl2, 25 C, […]
# run conditions: protein: recombinant; tags: N-terminal His-tag removed with TEV; chain copies: 2
Give bare numbers, in nM.

Below, 2 binders whose answers are already recorded.
ahpC (dsDNA) DNA 1: TTTGCCTGACAGCGACTTCACGGCACGATG DNA 2: CATCGTGCCGTGAAGTCGCTGTCAGGCAAA    654
DR (dsDNA) DNA 1: ACGATTCACAGCTGATTCACAGCATCTACG DNA 2: CGTAGATGCTGTGAATCAGCTGTGAATCGT    21.8

Each of the following entries comes with a recorded value; kindly state Kd for each.
1. lpqA (dsDNA) DNA 1: GCACCTTCACCGCCCGCCCACAGCCACGCA DNA 2: TGCGTGGCTGTGGGCGGGCGGTGAAGGTGC
2. hisG (dsDNA) DNA 1: CGCGACCCGCAGCATGCTCACAGCTTTCGA DNA 2: TCGAAAGCTGTGAGCATGCTGCGGGTCGCG

[3080, 114]
